Reference source: patent US20180237497A1

biological target: T1, human IGF2^1-67 (mature insulin-like growth factor 2) (human, UniProt P01344 25-91, biotinylated (site not stated) where immobilised on the chip (Tables 1-4)); assay: SPR kinetic, biotin-IGF2 on chip, pH 7.4
T1 construct: mature; also called mature IGF2; biotinylated IGF2
T1 sequence (P01344 25-91): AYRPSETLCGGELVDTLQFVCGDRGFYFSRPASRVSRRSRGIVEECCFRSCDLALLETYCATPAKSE
Listing: koff of selected binders
Output spec: scalar in s⁻¹, unitless text.

# example entries with known answers
binder="domain 11^AB5 G1603A (receptor, See m5) MKSNEHDDCQVTNPSTGHLFDLSSLSGRAGFTAAYAKGWGVYMSICGENENCPPGVGACFGQTRISVGKANKRLRYVDQVLQLVYKDGSPCPSKSALSYKSVISFVCRPEAGPTNRPMLISLDKQTCTLFFSWHTPLACEQATECSV" units_of_measure=s⁻¹ measured_value=0.0183
binder="domain 11^AB5 Q1632L (receptor, See m5; HI loop mutant) MKSNEHDDCQVTNPSTGHLFDLSSLSGRAGFTAAYAKGWGVYMSICGENENCPPGVGACFGQTRISVGKANKRLRYVDQVLQLVYKDGSPCPSKSGLSYKSVISFVCRPEAGPTNRPMLISLDKLTCTLFFSWHTPLACEQATECSV" units_of_measure=s⁻¹ measured_value=0.0175
binder="IGF2R domain 11^AB5 (receptor, His6-tagged soluble domain 11; also called 1542YAKGWG1547) MKSNEHDDCQVTNPSTGHLFDLSSLSGRAGFTAAYAKGWGVYMSICGENENCPPGVGACFGQTRISVGKANKRLRYVDQVLQLVYKDGSPCPSKSGLSYKSVISFVCRPEAGPTNRPMLISLDKQTCTLFFSWHTPLACEQATECSV" units_of_measure=s⁻¹ measured_value=0.0208

Field request: koff | item: domain 11^AB5 K1631W (receptor, See m5; HI loop mutant) MKSNEHDDCQVTNPSTGHLFDLSSLSGRAGFTAAYAKGWGVYMSICGENENCPPGVGACFGQTRISVGKANKRLRYVDQVLQLVYKDGSPCPSKSGLSYKSVISFVCRPEAGPTNRPMLISLDWQTCTLFFSWHTPLACEQATECSV
0.0034
